Test: enzyme activity assay at 23° C. with purified enzyme
Format: biochemical
Conditions: wild-type set at 100%
EXPERIMENTAL ENDPOINT: maximum activity as a percentage of the wild-type enzyme's activity, Fluazifop (%)
Answers are plain numbers, in %.

Return reported maximum activity as a percentage of the wild-type enzyme's activity, Fluazifop; argument: MON-HT10: engineered oxygenase protein, amino acid sequence SEQ ID NO:43 (protein) MHAALTPLTNKYRFIDVQPLCGVLGAEITGVDLREPLDDSTWNEILDAFHTYQVIYFPGQAITNEQHIAFSRRFGPVDPVPLLKSIEGYPEVQMIRREANESGRILGDDWHTDSTFLDAPPAAVVMRAIEVPEYGGDTGFLSMYSAWDTLSDTMKATIEGLNVVHSATRVFGSLYQAQNWRFSNTSVKVMDVDAGDRETVHPLVVSHPVTGRRALYCNQVYCQRIEGMTDAESKCLLQFLYEHATKFDFTCRVRWKKDQVLVWDNLCTMHLAVPDYDGKFRYLTRTTVAGDKPSR
48

Value source: patent US12723255B2
